system name: MCL-1 (Homo sapiens)
Sequence (Q07820 whole entry): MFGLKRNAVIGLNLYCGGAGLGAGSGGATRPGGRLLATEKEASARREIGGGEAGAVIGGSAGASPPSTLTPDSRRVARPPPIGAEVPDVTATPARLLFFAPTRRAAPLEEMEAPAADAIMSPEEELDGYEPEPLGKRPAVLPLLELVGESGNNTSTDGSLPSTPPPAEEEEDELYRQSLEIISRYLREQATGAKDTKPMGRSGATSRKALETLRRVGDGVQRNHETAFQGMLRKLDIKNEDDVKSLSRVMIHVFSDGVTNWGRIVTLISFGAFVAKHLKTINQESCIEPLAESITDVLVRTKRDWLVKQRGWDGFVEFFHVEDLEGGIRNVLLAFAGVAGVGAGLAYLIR
measurement description: Protein-protein interaction assay MCL-1/Noxa BH3 peptide (MCL-1 assay), TR-FRET
Format: binding
experimental parameters: MBP-MCL-1 / Noxa BH3-derived peptide, median

molecule	IC50 [nM]
COCCn1nc2c(c1C)-c1cccc3c(CCCOc4cccc5ccccc45)c(C(=O)O)n(c13)CCCCOC2 (single isomer, unassigned; enantiomer 2) [Example 108]	54.3
Cc1ccc2c(CCCOc3cccc4ccccc34)c(C(=O)O)n3c2c1-c1c(nn(C)c1C)CN(C)CCC3 (single isomer, unassigned; enantiomer 1) [Example 073]	2.06
Cn1nc(COC2CC2)c2c1COCCCCn1c(C(=O)O)c(CCCOc3cccc4ccccc34)c3cccc-2c31 (racemic) [Example 213]	13.4
